Tested on: GLUT-1
Test Details: Caco-2 monolayer efflux assay, Apparent Permeability (Papp), with or without GLUT-1 inhibitor phloretin
Assay type: in vitro ADME, Human
Measurement Setup: human, compound alone, read-out: Papp A → B
Experimental: In a monolayer efflux assay, the Apparent Permeability (Papp) in both basolateral to apical [Papp(B→A)] and apical to basolateral [Papp(A→B)] directions was determined for each compound (FIG. 2). […] The Papp(B→A) flux of each compound alone or in the presence of phloretin, a GLUT-1 inhibitor, has been determined. […] A→B flux, which represents the passive transport, has also been determined for each compound (Table 2).
Readout Name: Papp A→B (×10⁻⁶ cm/s)

COc1ccc(-c2noc(CC(=O)OCC3OC(O)C(O)C(O)C3O)c2-c2ccc(OC)cc2)cc1 (centres unmarked) [GALMOF0] : 38
COc1ccc(-c2noc(CC(=O)NCCCCCCCCCCC(=O)OCC3OC(O)C(O)C(O)C3O)c2-c2ccc(OC)cc2)cc1 (centres unmarked) [GALMOF11] : 29.2

# credit: patent US12011433B2
